- System: PANC-1
- Method: SRB colorimetric assay of cell growth and viability, PANC-1
- Format: cell-based, human
- Cond: 48 hours exposure; read-out: LC50 PANC-1
- Description: The finality of this assay is to interrupt the growth of a “in vitro” tumor cell culture by means a continued exhibition of the cells to the sample to be testing. […] Cells are seeded in 96 well microtiter plates, at 5×10^3 cells per well in aliquots of 195 μL medium, and they are allowed to attach to the plate surface by growing in drug free medium for 18 hours. […] Optical densities are read on a automated spectrophotometric plate reader at a single wavelength of 490 nm. […]
Where a SMILES comes first, the peptide text is derived from it. Bridges are numbered along the chain shown (N, C = ends). [ ]: non-standard residue; d: D form. The star is where a group is joined. d(aIle) = CC[C@H](C)[C@@H](N)C(=O)O; d(aThr) = C[C@@H](O)[C@@H](N)C(=O)O; Hexanoyl(5-Me) = CC(C)CCCC(=O)*; Orn = NCCC[C@H](N)C(=O)O; Dhb = C/C=C(\N)C(=O)O
Readout kind: CC50 (µM)
Give bare numbers, in µM.

The cases that follow already have their CC50 on record.
• C/C=C1\NC(=O)[C@H](Cc2ccccc2)NC(=O)[C@@H](C(C)C)NC(=O)[C@@H]([C@@H](C)CC)NC(=O)[C@H](NC(=O)[C@H](NC(=O)[C@H](CCCN)NC(=O)[C@H]2CCCN2C(=O)[C@H](NC(=O)CNC(=O)[C@@H](NC(=O)[C@H](NC(=O)CCCC(C)C)C(C)C)[C@@H](C)O)C(C)C)[C@@H](C)CC)[C@@H](C)OC(=O)[C@H](C(C)C)NC1=O [Compound 42, [Gly^11]-KF] ({Hexanoyl(5-Me)}-[dV]TG[dV][dP][Orn][d(aIle)][d(aThr)][d(aIle)][dV]F[Dhb]V; ester 8-C) = 6.96
• C/C=C1\NC(=O)[C@H](Cc2ccccc2)NC(=O)[C@@H](C(C)C)NC(=O)[C@@H]([C@@H](C)CC)NC(=O)[C@H](NC(=O)[C@H](NC(=O)[C@H](CCCN)NC(=O)[C@H]2CCCN2C(=O)[C@H](NC(=O)[C@@H](NC(=O)[C@@H](NC(=O)[C@H](NC(=O)CCCCC(C)(F)F)C(C)C)[C@@H](C)O)C(C)C)C(C)C)[C@@H](C)CC)[C@@H](C)OC(=O)[C@H](C(C)C)NC1=O [Compound 28, [6,6-dFHep^14]-KF] = 4.3
• C/C=C1\NC(=O)[C@H](Cc2ccccc2)NC(=O)[C@@H](C(C)C)NC(=O)[C@@H]([C@@H](C)CC)NC(=O)[C@H](NC(=O)[C@H](NC(=O)[C@H](CCCN)NC(=O)[C@H]2CCCN2C(=O)[C@H](NC(=O)[C@@H](NC(=O)[C@@H](NC(=O)[C@@H](CC2CCCCC2)NC(=O)CCCC(C)C)[C@@H](C)O)C(C)C)C(C)C)[C@@H](C)CC)[C@@H](C)OC(=O)[C@H](C(C)C)NC1=O [Compound 8, [D-Cha^13]-KF] = 6.53

Could you now consider this next compound?
### Prompt Which measured CC50 belongs to C/C=C1\NC(=O)[C@H](Cc2ccccc2)NC(=O)[C@@H](C(C)C)NC(=O)[C@@H]([C@@H](C)CC)NC(=O)[C@H](NC(=O)[C@H](NC(=O)[C@H](CCCN)NC(=O)[C@H]2CCCN2C(=O)[C@H](NC(=O)[C@@H](NC(=O)[C@@H](NC(=O)[C@H](NC(=O)CCCCCCCCCCCCCCCCCCC)C(C)C)[C@@H](C)O)C(C)C)C(C)C)[C@@H](C)CC)[C@@H](C)OC(=O)[C@H](C(C)C)NC1=O [Compound 13, [Icos^14]-KF] , tested on PANC-1?
### Response 6.02

Attribution: patent US20070117743A1
